All figures here come from ChEMBL document CHEMBL4376890.

- ASSAYED_SYSTEM: UniProt:P14902
- Sequence (P14902 whole entry, the tested form may be a part): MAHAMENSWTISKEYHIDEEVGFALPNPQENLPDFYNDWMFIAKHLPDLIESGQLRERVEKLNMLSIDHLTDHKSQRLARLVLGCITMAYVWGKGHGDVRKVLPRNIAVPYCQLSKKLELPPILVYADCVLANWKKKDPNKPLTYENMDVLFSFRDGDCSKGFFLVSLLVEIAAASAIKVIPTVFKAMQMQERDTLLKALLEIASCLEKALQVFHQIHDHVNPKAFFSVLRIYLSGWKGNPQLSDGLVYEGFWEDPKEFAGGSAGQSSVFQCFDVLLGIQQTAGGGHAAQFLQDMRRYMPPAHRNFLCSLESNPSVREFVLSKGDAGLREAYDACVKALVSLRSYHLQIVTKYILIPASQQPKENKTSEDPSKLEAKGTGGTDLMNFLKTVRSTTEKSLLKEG
- EXPERIMENT: Inhibition of recombinant full-length N-terminal His-tagged human IDO1 (1 to 403 residues) expressed in Escherichia coli BL21(DE3) cells
Documented IC50 across a set of molecules
QUANTITY_MEASURED: IC50 (nM)

SMILES_REPRESENTATION	ASSAYED_SYSTEM	QUANTITY_MEASURED	NUMBER
Brc1ccc(-c2csc3nccn23)cc1	UniProt:P14902	IC50	380
CC(C)CSc1nnc2scc(-c3ccc(Cl)cc3)n12	UniProt:P14902	IC50	256
S=C(NCc1cnc2scc(C#CC3CC3)n12)Nc1cccc(Cl)c1	UniProt:P14902	IC50	27.6
Cc1ccc(CS(=O)(=O)NCc2cnc3scc(-c4ccc(Br)cc4)n23)cc1	UniProt:P14902	IC50	855
Cc1sc2nccn2c1-c1ccc(Br)cc1	UniProt:P14902	IC50	3110
N#Cc1ccc(NC(=O)NCc2cnc3scc(C#Cc4cccnc4)n23)cc1	UniProt:P14902	IC50	3200
